Sourced from patent US10308643B2

target-of-assay: HDAC1 enzyme (Homo sapiens, UniProt Q13547)
Construct: transducing full length HDAC1 and HDAC6 genes into Sf-9 insect cells; GST; purchased SignalChem; host or cells: Sf-9 insect cells
Sequence (Q13547 whole entry): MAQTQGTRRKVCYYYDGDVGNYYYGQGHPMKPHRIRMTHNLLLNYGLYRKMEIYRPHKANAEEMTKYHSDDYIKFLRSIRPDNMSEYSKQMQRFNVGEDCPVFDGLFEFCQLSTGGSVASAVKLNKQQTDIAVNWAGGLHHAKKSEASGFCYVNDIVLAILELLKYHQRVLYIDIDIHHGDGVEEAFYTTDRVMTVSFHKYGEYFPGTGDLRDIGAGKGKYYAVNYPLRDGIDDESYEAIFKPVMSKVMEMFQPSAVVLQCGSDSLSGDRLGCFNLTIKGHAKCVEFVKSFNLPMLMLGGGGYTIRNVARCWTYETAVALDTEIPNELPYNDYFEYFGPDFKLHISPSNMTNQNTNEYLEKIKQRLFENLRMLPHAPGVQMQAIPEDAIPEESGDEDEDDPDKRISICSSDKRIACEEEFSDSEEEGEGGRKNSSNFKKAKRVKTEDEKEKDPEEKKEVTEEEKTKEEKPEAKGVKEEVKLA
protocol-details: HDAC1/6 Enzyme Inhibitory Assay (HDAC-Glo I/II Assay kit), HDAC1
Format: biochemical
measurement-setup: 1 μM test compound; wells without enzyme = 100% inhibition; read-out: HDAC1 inhibitory rate (%) (1 μM)
experimental-endpoint: inhibition at 1 µM (%)

[[record]]
compound = "O=C(N[C@@H]1CCCC[C@H]1N1Cc2ccc(-c3noc(C(F)(F)F)n3)cc2C1=O)N1C2CCC1COC2 [Example 145]"
experimental_endpoint = "inhibition at 1 µM"
quantitative_readout = 0


[A] CC1CC1C(=O)N[C@@H]1CCCC[C@H]1N1Cc2ccc(-c3noc(C(F)(F)F)n3)cc2C1=O (some centres unmarked) [Example 102]
[B] CC(=O)N1CC[C@@H](c2ccccc2)[C@H](N2Cc3cc(-c4noc(C(F)(F)F)n4)ccc3C2=O)C1 (relative stereo) [Example 73]
[C] N#Cc1ccccc1C(=O)N[C@@H]1CCCC[C@H]1N1Cc2ccc(-c3noc(C(F)(F)F)n3)cc2C1=O [Example 106]
[D] O=C1c2cc(-c3noc(C(F)(F)F)n3)ccc2CN1[C@@H]1CCNC[C@H]1c1ccc(F)cc1 (relative stereo) [Example 45]
input: Arrange the 4 compounds by rising inhibition at 1 µM, starting with the smallest. # output: labels, in the requested order
output: A, B, C, D

----------
target-of-assay: HDAC6 enzyme (Homo sapiens)
Construct: transducing full length HDAC1 and HDAC6 genes into Sf-9 insect cells; GST; purchased SignalChem; host or cells: Sf-9 insect cells
Sequence (Q9UBN7 1-1215): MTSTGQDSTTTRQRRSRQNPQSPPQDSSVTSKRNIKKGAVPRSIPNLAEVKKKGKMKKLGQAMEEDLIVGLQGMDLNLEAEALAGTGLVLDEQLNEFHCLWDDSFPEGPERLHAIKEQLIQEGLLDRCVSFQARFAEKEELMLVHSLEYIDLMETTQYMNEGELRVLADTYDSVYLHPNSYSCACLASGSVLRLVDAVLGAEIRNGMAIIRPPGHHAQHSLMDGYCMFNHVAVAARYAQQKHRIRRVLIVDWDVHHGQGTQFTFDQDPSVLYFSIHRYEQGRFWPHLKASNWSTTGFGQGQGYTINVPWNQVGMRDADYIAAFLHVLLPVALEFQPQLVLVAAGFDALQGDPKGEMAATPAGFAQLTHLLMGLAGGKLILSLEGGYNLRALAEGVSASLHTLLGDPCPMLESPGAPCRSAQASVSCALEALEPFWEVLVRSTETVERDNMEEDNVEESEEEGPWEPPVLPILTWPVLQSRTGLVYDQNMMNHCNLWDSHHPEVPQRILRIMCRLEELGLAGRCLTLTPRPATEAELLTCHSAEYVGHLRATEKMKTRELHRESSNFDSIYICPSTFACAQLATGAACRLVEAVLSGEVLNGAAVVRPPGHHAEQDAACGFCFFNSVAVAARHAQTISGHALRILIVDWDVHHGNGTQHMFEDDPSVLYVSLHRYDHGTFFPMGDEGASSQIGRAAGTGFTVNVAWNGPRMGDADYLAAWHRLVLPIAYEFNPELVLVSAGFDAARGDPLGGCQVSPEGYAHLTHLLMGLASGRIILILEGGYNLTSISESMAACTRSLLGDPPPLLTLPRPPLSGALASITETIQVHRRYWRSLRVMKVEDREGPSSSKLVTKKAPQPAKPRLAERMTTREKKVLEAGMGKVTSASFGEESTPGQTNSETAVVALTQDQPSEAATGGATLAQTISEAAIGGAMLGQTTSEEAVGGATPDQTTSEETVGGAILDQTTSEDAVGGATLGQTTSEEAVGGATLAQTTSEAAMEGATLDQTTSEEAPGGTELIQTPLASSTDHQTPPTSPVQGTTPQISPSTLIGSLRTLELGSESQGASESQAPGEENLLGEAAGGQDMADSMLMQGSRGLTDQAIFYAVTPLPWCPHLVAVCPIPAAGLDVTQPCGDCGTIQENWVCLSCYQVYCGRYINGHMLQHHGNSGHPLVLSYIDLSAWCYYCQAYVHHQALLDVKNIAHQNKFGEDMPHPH
protocol-details: HDAC1/6 Enzyme Inhibitory Assay (HDAC-Glo I/II Assay kit), HDAC6
Type: biochemical
measurement-setup: 1 μM test compound; wells without enzyme = 100% inhibition; read-out: HDAC6 inhibitory rate (%) (1 μM)
experimental-endpoint: inhibition at 1 µM (%)

[[record]]
compound = "O=C1c2cc(-c3noc(C(F)(F)F)n3)ccc2CN1[C@@H]1CCNC[C@H]1c1ccccc1 [Example 15]"
target_of_assay = "HDAC6 enzyme (Homo sapiens)"
experimental_endpoint = "inhibition at 1 µM"
unit_abbreviation = "%"
quantitative_readout = 98

[[record]]
compound = "O=C1C[C@H](C(=O)N[C@@H]2CCCC[C@H]2N2Cc3ccc(-c4noc(C(F)(F)F)n4)cc3C2=O)CN1 [Example 130]"
target_of_assay = "HDAC6 enzyme (Homo sapiens)"
experimental_endpoint = "inhibition at 1 µM"
unit_abbreviation = "%"
quantitative_readout = 86

[[record]]
compound = "O=C1c2cc(-c3noc(C(F)(F)F)n3)ccc2CN1[C@H]1CCNC[C@@H]1c1ccccc1 [Example 31]"
target_of_assay = "HDAC6 enzyme (Homo sapiens)"
experimental_endpoint = "inhibition at 1 µM"
unit_abbreviation = "%"
quantitative_readout = 99

